Fold resistance, rCHIKV S454G + W456R listing for selected compounds.
system: rCHIKV S454G + W456R; format: cell-based, Chikungunya virus; conditions: (EC50 for the variant)/(EC50 for the wt)
Lab note: record just the number, no unit beside it.

// solved cases for Fold resistance, rCHIKV S454G + W456R follow
Returns the measured Fold resistance, rCHIKV S454G + W456R for the input compound. Input: CCNc1nc(C)cc(N2CCN(C(=O)c3ccc(C)cc3)CC2)n1
20.8

Returns the measured Fold resistance, rCHIKV S454G + W456R for the input compound. Input: CCNc1nc(C)cc(N2CCN(C(=O)c3ccc(F)cc3)CC2)n1
29.4

Returns the measured Fold resistance, rCHIKV S454G + W456R for the input compound. Input: CCC1=NC2C(N=NN2c2cccc(OC(C)C)c2)C(=O)N1 (stereo not drawn)
9.3

Returns the measured Fold resistance, rCHIKV S454G + W456R for the input compound. Input: Nc1ncnc2c1ncn2C1C(F)=C(CCO)C(O)C1O (stereo not drawn)
1

***
Returns the measured Fold resistance, rCHIKV S454G + W456R for the input compound. Input: NC(=O)c1nc(F)c[nH]c1=O [Favipiravir, reference compound]
1.1
